tested on: DK-MG (Glioblastoma); assay: combination Emax (second highest fraction inhibited in the dose matrix, 72 h); higher = more inhibition; extreme values may be limits of the assay
# key: entry, value: combination Emax
Parameter: combination Emax

CN(C)CCCOc1ccc(-c2ccc3ncc4c(c3c2)n(C2CCOCC2)c(=O)n4C)cn1 [AZD0156] + CCN(CCO)CCCOc1ccc2c(Nc3cc(CC(=O)Nc4cccc(F)c4)[nH]n3)ncnc2c1 [AZD2811] (first compound max 1 µM, 7x7, partner max 1 µM) ... 0.204
CC(=O)c1c(C)c2cnc(Nc3ccc(N4CCNCC4)cn3)nc2n(C2CCCC2)c1=O [Palbociclib] + CN(CC[C@H](CSC1=CC=CC=C1)NC2=C(C=C(C=C2)S(=O)(=O)NC(=O)C3=CC=C(C=C3)N4CCC(CC4)[C@H](C5=CC=CC=C5C6=CC=C(C=C6)Cl)O)S(=O)(=O)C(F)(F)F)CCO [AZD4320] (first compound max 10 µM, 7x7, partner max 1 µM) ... 0.389
C[C@@H](c1ccc2nccn2c1)n1nnc2ncc(-c3cnn(C)c3)nc21 [Savolitinib] + Cc1c2c(nn1C)CSCc1cc(n(C)n1)CSc1cc(c3ccccc3c1)OCCCc1c(C(=O)O)n(C)c3c-2c(Cl)ccc13 [AZD5991] (first compound max 1 µM, 7x7, partner max 1 µM) ... 0.417
CC1(C)CCC(CN2CCN(c3ccc(C(=O)NS(=O)(=O)c4ccc(NCC5CCOCC5)c([N+](=O)[O-])c4)c(Oc4cnc5[nH]ccc5c4)c3)CC2)=C(c2ccc(Cl)cc2)C1 [Venetoclax] + C[C@@H](Nc1cc(F)cc(F)c1)c1cc(C(=O)N(C)C)cc2c(=O)cc(N3CCOCC3)oc12 [AZD8186] (first compound max 1 µM, 7x7, partner max 3 µM) ... 0.372
CN(CCO)CC[C@H](CSc1ccccc1)Nc1ccc(S(=O)(=O)NC(=O)c2ccc(N3CCC([C@@H](O)c4ccccc4-c4ccc(Cl)cc4)CC3)cc2)cc1S(=O)(=O)C(F)(F)F [AZD4320] + CN(C)CCCOc1ccc(-c2ccc3ncc4c(c3c2)n(C2CCOCC2)c(=O)n4C)cn1 [AZD0156] (first compound max 1 µM, 7x7, partner max 1 µM) ... 0.192
COc1nnc2ccc(N3CCC(c4ccc(OCCN5CCN(C)C(=O)[C@H]5C)cc4)CC3)nn12 [AZD5153] + CN(CC[C@H](CSC1=CC=CC=C1)NC2=C(C=C(C=C2)S(=O)(=O)NC(=O)C3=CC=C(C=C3)N4CCC(CC4)[C@H](C5=CC=CC=C5C6=CC=C(C=C6)Cl)O)S(=O)(=O)C(F)(F)F)CCO [AZD4320] (first compound max 1 µM, 7x7, partner max 1 µM) ... 0.614
Cc1nc(Nc2ncc(C(=O)Nc3c(C)cccc3Cl)s2)cc(N2CCN(CCO)CC2)n1 [Dasatinib] + CC(=O)Nc1cccc(-n2c(=O)n(C3CC3)c(=O)c3c(Nc4ccc(I)cc4F)n(C)c(=O)c(C)c32)c1 [Trametinib] (first compound max 2 µM, 7x7, partner max 1 µM) ... 0.895
Cc1cc2ncnn2cc1Nc1ncc2c(n1)n(C1CCOCC1)c(=O)n2C [AZD7648] + C[C@@H]1COCCN1C2=NC(=NC(=C2)C3(CC3)[S@](=N)(=O)C)C4=C5C=CNC5=NC=C4 [AZD6738] (first compound max 10 µM, 7x7, partner max 10 µM) ... 0.273

---

test system: MRK-nu-1 (Breast Carcinoma); assay: Bliss excess, mean over the matrix (fraction); higher = more synergy
Parameter: Bliss excess

CN(C)CCCOc1ccc(-c2ccc3ncc4c(c3c2)n(C2CCOCC2)c(=O)n4C)cn1 [AZD0156] + CCN(CCO)CCCOc1ccc2c(Nc3cc(CC(=O)Nc4cccc(F)c4)[nH]n3)ncnc2c1 [AZD2811] (first compound max 1 µM, 7x7, partner max 1 µM) ... 0.0186
N#Cc1cnc(Nc2cc(NC[C@H]3CNCCO3)c(C(F)(F)F)cn2)cn1 [SRA737] + Nc1ccn([C@@H]2O[C@H](CO)[C@@H](O)C2(F)F)c(=O)n1 [Gemcitabine] (first compound max 10 µM, 7x7, partner max 0.3 µM) ... 0.0214
Cc1cc2ncnn2cc1Nc1ncc2c(n1)n(C1CCOCC1)c(=O)n2C [AZD7648] + CCN(CCO)CCCOc1ccc2c(Nc3cc(CC(=O)Nc4cccc(F)c4)[nH]n3)ncnc2c1 [AZD2811] (first compound max 10 µM, 7x7, partner max 1 µM) ... 0.0245
Cc1cc2ncnn2cc1Nc1ncc2c(n1)n(C1CCOCC1)c(=O)n2C [AZD7648] + C=CCn1c(=O)c2cnc(Nc3ccc(N4CCN(C)CC4)cc3)nc2n1-c1cccc(C(C)(C)O)n1 [AZD1775] (first compound max 10 µM, partner max 1 µM) ... 0.0279
Cc1c2c(nn1C)CSCc1cc(n(C)n1)CSc1cc(c3ccccc3c1)OCCCc1c(C(=O)O)n(C)c3c-2c(Cl)ccc13 [AZD5991] + Cn1cnc2c(F)c(Nc3ccc(Br)cc3Cl)c(C(=O)NOCCO)cc21 [Selumetinib] (first compound max 1 µM, 7x7, partner max 3 µM) ... 0.0052
CN(CCO)CC[C@H](CSc1ccccc1)Nc1ccc(S(=O)(=O)NC(=O)c2ccc(N3CCC([C@@H](O)c4ccccc4-c4ccc(Cl)cc4)CC3)cc2)cc1S(=O)(=O)C(F)(F)F [AZD4320] + C[C@@H]1COCCN1C2=NC(=NC(=C2)C3(CC3)[S@](=N)(=O)C)C4=C5C=CNC5=NC=C4 [AZD6738] (first compound max 1 µM, 7x7, partner max 10 µM) ... 0.0039
O=C(c1cc(Cc2n[nH]c(=O)c3ccccc23)ccc1F)N1CCN(C(=O)C2CC2)CC1 [Olaparib] + CC1(C)CCC(CN2CCN(c3ccc(C(=O)NS(=O)(=O)c4ccc(NCC5CCOCC5)c([N+](=O)[O-])c4)c(Oc4cnc5[nH]ccc5c4)c3)CC2)=C(c2ccc(Cl)cc2)C1 [Venetoclax] (first compound max 10 µM, 7x7, partner max 1 µM) ... 0.0277

---

tested on: MDA-MB-175-VII (Breast Carcinoma); assay: Bliss excess, mean over the matrix (fraction); higher = more synergy
Classify as follows. Reported Bliss excess greater than or equal to 0.004: y. Reported Bliss excess below: n.

CN(CCO)CC[C@H](CSc1ccccc1)Nc1ccc(S(=O)(=O)NC(=O)c2ccc(N3CCC([C@@H](O)c4ccccc4-c4ccc(Cl)cc4)CC3)cc2)cc1S(=O)(=O)C(F)(F)F [AZD4320] + CS(=O)(=O)CCNCc1ccc(-c2ccc3ncnc(Nc4ccc(OCc5cccc(F)c5)c(Cl)c4)c3c2)o1 [Lapatinib] (first compound max 1 µM, 7x7, partner max 10 µM) ... y
Cc1cc2ncnn2cc1Nc1ncc2c(n1)n(C1CCOCC1)c(=O)n2C [AZD7648] + O=C(c1cc(Cc2n[nH]c(=O)c3ccccc23)ccc1F)N1CCN(C(=O)C2CC2)CC1 [Olaparib] (first compound max 10 µM, 7x7, partner max 10 µM) ... n
CC(=O)Nc1cccc(-n2c(=O)n(C3CC3)c(=O)c3c(Nc4ccc(I)cc4F)n(C)c(=O)c(C)c32)c1 [Trametinib] + Cc1nc(-c2cn3c(n2)-c2ccc(-c4cnn(C(C)(C)C(N)=O)c4)cc2OCC3)n(C(C)C)n1 [Taselisib] (first compound max 1 µM, 7x7, partner max 10 µM) ... y
COc1cccc(OCCCN)c1-c1cc(Nc2cnc(C#N)cn2)n[nH]1 [Prexasertib] + CCc1c2c(nc3ccc(O)cc13)-c1cc3c(c(=O)n1C2)COC(=O)[C@]3(O)CC [SN-38] (first compound max 1 µM, 7x7, partner max 0.3 µM) ... n
CN(CCO)CC[C@H](CSc1ccccc1)Nc1ccc(S(=O)(=O)NC(=O)c2ccc(N3CCC([C@@H](O)c4ccccc4-c4ccc(Cl)cc4)CC3)cc2)cc1S(=O)(=O)C(F)(F)F [AZD4320] + C=CCn1c(=O)c2cnc(Nc3ccc(N4CCN(C)CC4)cc3)nc2n1-c1cccc(C(C)(C)O)n1 [AZD1775] (first compound max 1 µM, partner max 1 µM) ... n
CC(=O)c1c(C)c2cnc(Nc3ccc(N4CCNCC4)cn3)nc2n(C2CCCC2)c1=O [Palbociclib] + CC1(C)CCC(CN2CCN(c3ccc(C(=O)NS(=O)(=O)c4ccc(NCC5CCOCC5)c([N+](=O)[O-])c4)c(Oc4cnc5[nH]ccc5c4)c3)CC2)=C(c2ccc(Cl)cc2)C1 [Venetoclax] (first compound max 10 µM, 7x7, partner max 1 µM) ... n
C[C@@H](Oc1cc(-c2cnn(C3CCNCC3)c2)cnc1N)c1c(Cl)ccc(F)c1Cl [Crizotinib] + Cn1cnc2c(F)c(Nc3ccc(Br)cc3Cl)c(C(=O)NOCCO)cc21 [Selumetinib] (first compound max 10 µM, 7x7, partner max 10 µM) ... n

---

tested on: BC-1 (B-Cell Non-Hodgkin's Lymphoma); assay: Bliss excess, mean over the matrix (fraction); higher = more synergy
Parameter: Bliss excess

Cc1c2c(nn1C)CSCc1cc(n(C)n1)CSc1cc(c3ccccc3c1)OCCCc1c(C(=O)O)n(C)c3c-2c(Cl)ccc13 [AZD5991] + Nc1ccn([C@@H]2O[C@H](CO)[C@@H](O)C2(F)F)c(=O)n1 [Gemcitabine] (first compound max 1 µM, 7x7, partner max 0.3 µM) ... 0.033
CC1(C)CCC(CN2CCN(c3ccc(C(=O)NS(=O)(=O)c4ccc(NCC5CCOCC5)c([N+](=O)[O-])c4)c(Oc4cnc5[nH]ccc5c4)c3)CC2)=C(c2ccc(Cl)cc2)C1 [Venetoclax] + Cn1cnc2c(F)c(Nc3ccc(Br)cc3Cl)c(C(=O)NOCCO)cc21 [Selumetinib] (first compound max 1 µM, 7x7, partner max 3 µM) ... 0.0211
CN(CCO)CC[C@H](CSc1ccccc1)Nc1ccc(S(=O)(=O)NC(=O)c2ccc(N3CCC([C@@H](O)c4ccccc4-c4ccc(Cl)cc4)CC3)cc2)cc1S(=O)(=O)C(F)(F)F [AZD4320] + Cc1cc2ncnn2cc1Nc1ncc2c(n1)n(C1CCOCC1)c(=O)n2C [AZD7648] (first compound max 1 µM, 7x7, partner max 10 µM) ... 0.0246
